molecular target: Protein Tat (Human immunodeficiency virus type 1 group M subtype B (isolate HXB2)); assay: inhibitors of Tat binding to TAR RNA, dose response, counter-screen for Vif-APOBEC3G degradation inhibitor project, biochemical, fluorescence polarization, FAM-labeled TAR RNA (AID 1117361)
QUANTITY_KIND: pIC50
One number for each entry, as −log10 of the molar value.

Sample answers from the record:
What the record says about Cc1ccc2c(c1)C1C=CCC1C(C(=O)O)N2 (stereo not drawn) : pIC50 is 5.43

The compound COC(=O)CCCC(=O)Nc1c(F)c(F)c(F)c(F)c1F showed pIC50 equal to 4.11

Consider CCCc1cc(=O)oc2cc(C)c(CN3CCCC3)c(O)c12 . Its measured pIC50 is 4.77

Lab note: measured pIC50 of c1ccc2c(c1)CCCN2Cc1nnc2n1CCCCC2 was 5.37

# compound CCCCNC(=O)c1ccc2nc(-c3ccco3)c(-c3ccco3)nc2c1 ; its pIC50 = 5.16

I have 5 compounds here; please give me pIC50 for each one.
1. COC(=O)c1ccc(CC(=O)c2c(C)cc(O)cc2O)o1
2. CC(/C=N/n1c(-c2ccncc2)n[nH]c1=S)=C\c1ccco1
3. O=C(O)c1ccc2c(c1)[C@@H]1C=CC[C@@H]1[C@H](c1ccccn1)N2
4. O=C(O)COc1ccc2c(c1)O/C(=C\c1ccco1)C2=O
5. O=c1oc2c(O)c(O)cc3c(=O)oc4c(O)c(O)cc1c4c23

### Response
4.95
5.09
5.15
4.27
5.78

Where do the numbers come from? From PubChem BioAssay AID1117361.
